Exercise: state measured Ki for each of the molecules provided.
Molecular target: Itk (Homo sapiens, UniProt Q08881)
Sequence (Q08881 whole entry, species assumed): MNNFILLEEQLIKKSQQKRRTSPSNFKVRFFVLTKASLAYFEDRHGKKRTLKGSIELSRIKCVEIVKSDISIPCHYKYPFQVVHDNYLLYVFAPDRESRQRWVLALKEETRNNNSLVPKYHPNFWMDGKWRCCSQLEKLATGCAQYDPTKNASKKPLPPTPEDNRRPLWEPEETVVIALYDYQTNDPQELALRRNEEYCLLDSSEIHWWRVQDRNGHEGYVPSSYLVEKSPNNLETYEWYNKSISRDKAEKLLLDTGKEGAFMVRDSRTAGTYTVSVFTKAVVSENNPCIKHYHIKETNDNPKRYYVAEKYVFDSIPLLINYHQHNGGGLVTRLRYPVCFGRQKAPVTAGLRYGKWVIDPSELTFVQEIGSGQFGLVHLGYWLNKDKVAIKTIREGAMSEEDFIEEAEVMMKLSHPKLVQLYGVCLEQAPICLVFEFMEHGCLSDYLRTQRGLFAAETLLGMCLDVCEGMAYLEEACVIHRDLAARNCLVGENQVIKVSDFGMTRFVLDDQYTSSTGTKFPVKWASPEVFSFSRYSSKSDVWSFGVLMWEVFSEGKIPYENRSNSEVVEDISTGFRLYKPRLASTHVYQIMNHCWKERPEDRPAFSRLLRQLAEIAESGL

(Q) Fill in the blank: the reported Ki of CCCCNC(=O)c1ccc(-c2cnc3c(-c4ccccn4)c(N)nn3c2)nc1 is ____.
(A) 500 to 5000 nM

(Q) Fill in the blank: the reported Ki of COCCNc1cc(-c2cnc3c(-c4ccccn4)c(N)nn3c2)ccn1 is ____.
(A) 500 to 5000 nM

(Q) Fill in the blank: the reported Ki of CCN1CCN(C(=O)c2cccc(-c3cnc4c(-c5ccccn5)c(N)nn4c3)n2)CC1 is ____.
(A) 500 to 5000 nM

(Q) Fill in the blank: the reported Ki of CCN(CC)CCCc1cnc2c(-c3ccccn3)c(N)nn2c1 is ____.
(A) 500 to 5000 nM

(Q) Fill in the blank: the reported Ki of CN(CCc1ccccn1)C(=O)c1cccc(-c2cnc3c(-c4ccccn4)c(N)nn3c2)n1 is ____.
(A) 500 to 5000 nM

(Q) Fill in the blank: the reported Ki of Cc1cnc2c(-c3cc(NC4CCN(C)CC4)ncn3)c(N)nn2c1 is ____.
(A) 500 to 5000 nM

(Q) Fill in the blank: the reported Ki of Cc1n[nH]c(C)c1-c1cnc2c(-c3ccccn3)c(N)nn2c1 is ____.
(A) 500 to 5000 nM

(Q) Fill in the blank: the reported Ki of Nc1nn2cc(-c3ccc(C(=O)N4CCC[C@H]4CN4CCCC4)cn3)cnc2c1-c1ccccn1 is ____.
(A) < 500 nM

(Q) Fill in the blank: the reported Ki of Cc1cnc2c(-c3cc(N4CCC[C@H]4CO)ncn3)c(N)nn2c1 is ____.
(A) 500 to 5000 nM

(Q) Fill in the blank: the reported Ki of Nc1nn2cc(-c3ccc(CN4CC[C@H](N)C4)cc3)cnc2c1-c1ccccn1 is ____.
(A) < 500 nM

(Q) Fill in the blank: the reported Ki of CNCc1ccc(-c2cnc3c(-c4ccccn4)c(N)nn3c2)cc1 is ____.
(A) < 500 nM

(Q) Fill in the blank: the reported Ki of Nc1nn2cc(-c3ccc(C(=O)NC4CCCO4)cn3)cnc2c1-c1ccccn1 (centres unmarked) is ____.
(A) 500 to 5000 nM

(Q) Fill in the blank: the reported Ki of CCN(C(=O)c1c(N)nn2cc(-c3ccncn3)cnc12)C(C)C is ____.
(A) 500 to 5000 nM

(Q) Fill in the blank: the reported Ki of C#CCN(C)C(=O)c1cccc(-c2cnc3c(-c4ccccn4)c(N)nn3c2)n1 is ____.
(A) 500 to 5000 nM

(Q) Fill in the blank: the reported Ki of Nc1nn2cc(-c3ccnc(N4CCN(CCOCCO)CC4)c3)cnc2c1-c1ccccn1 is ____.
(A) 500 to 5000 nM

(Q) Fill in the blank: the reported Ki of Cc1cnc2c(-c3cc(N4CCCCC4)ncn3)c(N)nn2c1 is ____.
(A) < 500 nM

(Q) Fill in the blank: the reported Ki of CC(=O)N1CCN(c2ncccc2-c2cnc3c(-c4ccccn4)c(N)nn3c2)CC1 is ____.
(A) 500 to 5000 nM
